Assay: LD20 in the P388/0 test
Type: in vivo, CD2-F1 mice
Set-up: dose in mg/kg body weight
Details: intraperitoneal, days 1, 5, 9; doses are on a mg/kg basis
Protocol: CD2-F1 mice, of the same sex, weighing 20±3 g, are used for this test. Control and test animals are injected intraperitoneally with a suspension of ~10^6 viable P388/0 tumor cells on day 0. In each test, several dose levels which bracket the LD20 of the compound are evaluated; each dose level group contains 6 animals. […] The day of death for each animal is recorded, the median identified for each group and the ratios of median survival time for treated (T)/control (C) groups are calculated. […]
Structures can show the parent of a compound that is named as a salt.
Value Type: LD20

[[record]]
molecule = "COCC(C)(CO)NCc1ccc2ccc3cccc4ccc1c2c34 (stereo not shown) [Example 22D]"
measured_value = 135

[[record]]
molecule = "CC(O)CNCc1ccc2ccc3cccc4ccc1c2c34 (stereo not shown) [Example 8, hydrochloride]"
measured_value = 600

[[record]]
molecule = "CCC(CO)NCc1ccc2ccc3cccc4ccc1c2c34 (stereo not shown) [Example 6, hydrochloride]"
measured_value = 450

[[record]]
molecule = "OCC(CO)(CO)NCc1ccc2ccc3cccc4ccc1c2c34 [Example 10, hydrochloride]"
measured_value = 215

[[record]]
molecule = "O[C@@H]1CCC[C@H](O)[C@H]1NCc1ccc2ccc3cccc4ccc1c2c34 [Example 23B]"
measured_value = 180

[[record]]
molecule = "CCOCC(CO)(CO)NCc1ccc2ccc3cccc4ccc1c2c34 [Example 21C]"
measured_value = 225

[[record]]
molecule = "OCCNCc1ccc2ccc3cccc4ccc1c2c34 [Example 13, hydrochloride]"
measured_value = 220

[[record]]
molecule = "CC(CO)(CO)NCc1ccc2ccc3cccc4ccc1c2c34 [Example 1A, hydrochloride]"
measured_value = 375

[[record]]
molecule = "OCCCNCc1ccc2ccc3cccc4ccc1c2c34 [Example 3, hydrochloride]"
measured_value = 450

[[record]]
molecule = "CC(CO)(CO)NCc1cc2cccc3ccc4cccc1c4c32"
measured_value = 45

[[record]]
molecule = "CC(CO)NCc1ccc2ccc3cccc4ccc1c2c34 (stereo not shown) [Example 7, hydrochloride]"
measured_value = 600

[[record]]
molecule = "CC(C)C(CO)NCc1ccc2ccc3cccc4ccc1c2c34 (stereo not shown) [Example 4, hydrochloride]"
measured_value = 450

[[record]]
molecule = "CC(C)(CO)NCc1ccc2ccc3cccc4ccc1c2c34"
measured_value = 450

[[record]]
molecule = "OCC(CO)NCc1ccc2ccc3cccc4ccc1c2c34 [Example 11, hydrochloride]"
measured_value = 450

[[record]]
molecule = "CCC(CO)(CO)NCc1ccc2ccc3cccc4ccc1c2c34 [Example 5A, hydrochloride]"
measured_value = 225

[[record]]
molecule = "C[C@H](O)[C@@](C)(CO)NCc1ccc2ccc3cccc4ccc1c2c34 (relative stereo) [Example 20G, hydrochloride]"
measured_value = 125

